Source listed as PubChem BioAssay AID1963449.

# Test system: 596521-263-R-J1-PDC complex spheroid growth
# experiment-summary: Anticancer human tumor 596521-263-R-J1-PDC patient-derived soft tissue sarcoma cell line growth inhibition [Asc]
# measurement-parameters: second compound 1 µM; first compound 0.0316 µM; stronger effect = lower value
endpoint-name: viability, T/C (%)

>  <compound>
CCN1CCN(Cc2ccc(Nc3ncc(F)c(-c4cc(F)c5nc(C)n(C(C)C)c5c4)n3)nc2)CC1 + Cc1c(S(C)(=O)=O)c(-c2cc(F)cc(N3CCN(c4ccc(NS(=O)(=O)c5ccc(NC(CCN6CCC(C(=O)OCCCP(=O)(O)O)CC6)CSc6ccccc6)c(S(=O)(=O)C(F)(F)F)c5)cc4)CC3)c2)c(-c2ccc(Cl)cc2)n1C(C)C

>  <experimental-system>
596521-263-R-J1-PDC complex spheroid growth

>  <measured-value>
78.5

$$$$

---

# Test system: 596521-263-R-J1-PDC complex spheroid growth
# experiment-summary: Anticancer human tumor 596521-263-R-J1-PDC cell line growth inhibition [Asc];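 note: spheroids exposed to compounds for 7 days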
# measurement-parameters: second compound 0.949 µM; first compound 0.1 µM; stronger effect = lower value
Please use t for viability, T/C under 90% and f for everything else, ties included.

>  <compound>
C#Cc1c(F)ccc2cc(O)cc(-c3ncc4c(N5CC6CCC(C5)N6)nc(OCC56CCCN5CC(F)C6)nc4c3F)c12 (stereo not given) + CCN1C(C(=O)NC23CCC(C(=O)O)(CC2)CC3)C(c2cccc(Cl)c2F)C2(C(=O)Nc3cc(Cl)ccc32)C12CCCCC2

>  <cat>
f

$$$$
>  <compound>
NC1CCC(NC2CC2c2ccccc2)CC1 (stereo not given) + CCN1C(C(=O)NC23CCC(C(=O)O)(CC2)CC3)C(c2cccc(Cl)c2F)C2(C(=O)Nc3cc(Cl)ccc32)C12CCCCC2

>  <cat>
t

$$$$
>  <compound>
CNC(C)C(=O)NC1CN(S(=O)(=O)c2cccc(S(=O)(=O)N3CCC4CCC(C(=O)NC(c5ccccc5)c5ccccc5)N4C(=O)C(NC(=O)C(C)NC)C3)c2)CCC2CCC(C(=O)NC(c3ccccc3)c3ccccc3)N2C1=O (stereo not given) + CCN1C(C(=O)NC23CCC(C(=O)O)(CC2)CC3)C(c2cccc(Cl)c2F)C2(C(=O)Nc3cc(Cl)ccc32)C12CCCCC2

>  <cat>
t

$$$$
>  <compound>
C=CC(=O)N1CCN(c2nc(=O)n(-c3c(C)ccnc3C(C)C)c3nc(-c4c(O)cccc4F)c(F)cc23)C(C)C1 (stereo not given) + CCN1C(C(=O)NC23CCC(C(=O)O)(CC2)CC3)C(c2cccc(Cl)c2F)C2(C(=O)Nc3cc(Cl)ccc32)C12CCCCC2

>  <cat>
f

$$$$
>  <compound>
C=C(F)C(=O)N1CCN(c2nc(OCC3CCCN3C)nc3c2CCN(c2cccc4cccc(Cl)c24)C3)CC1CC#N (stereo not given) + CCN1C(C(=O)NC23CCC(C(=O)O)(CC2)CC3)C(c2cccc(Cl)c2F)C2(C(=O)Nc3cc(Cl)ccc32)C12CCCCC2

>  <cat>
f

$$$$
>  <compound>
O=C(c1ccc(F)c(F)c1Nc1ccc(I)cc1F)N1CC(O)([C@@H]2CCCCN2)C1 + CCN1C(C(=O)NC23CCC(C(=O)O)(CC2)CC3)C(c2cccc(Cl)c2F)C2(C(=O)Nc3cc(Cl)ccc32)C12CCCCC2

>  <cat>
t

$$$$
>  <compound>
COc1c(OCCCN2CCOCC2)ccc2c3n(c(=NC(=O)c4cnc(N)nc4)nc12)CCN3 + CCN1C(C(=O)NC23CCC(C(=O)O)(CC2)CC3)C(c2cccc(Cl)c2F)C2(C(=O)Nc3cc(Cl)ccc32)C12CCCCC2

>  <cat>
t

$$$$
>  <compound>
Cn1ncnc1[C@H]1c2n[nH]c(=O)c3cc(F)cc(c23)N[C@@H]1c1ccc(F)cc1 + CCN1C(C(=O)NC23CCC(C(=O)O)(CC2)CC3)C(c2cccc(Cl)c2F)C2(C(=O)Nc3cc(Cl)ccc32)C12CCCCC2

>  <cat>
t

$$$$
